Reference for the values: patent US8044198B2

testedTarget: SIRT1 (Homo sapiens, UniProt Q96EB6)
Sequence (Q96EB6 1-747): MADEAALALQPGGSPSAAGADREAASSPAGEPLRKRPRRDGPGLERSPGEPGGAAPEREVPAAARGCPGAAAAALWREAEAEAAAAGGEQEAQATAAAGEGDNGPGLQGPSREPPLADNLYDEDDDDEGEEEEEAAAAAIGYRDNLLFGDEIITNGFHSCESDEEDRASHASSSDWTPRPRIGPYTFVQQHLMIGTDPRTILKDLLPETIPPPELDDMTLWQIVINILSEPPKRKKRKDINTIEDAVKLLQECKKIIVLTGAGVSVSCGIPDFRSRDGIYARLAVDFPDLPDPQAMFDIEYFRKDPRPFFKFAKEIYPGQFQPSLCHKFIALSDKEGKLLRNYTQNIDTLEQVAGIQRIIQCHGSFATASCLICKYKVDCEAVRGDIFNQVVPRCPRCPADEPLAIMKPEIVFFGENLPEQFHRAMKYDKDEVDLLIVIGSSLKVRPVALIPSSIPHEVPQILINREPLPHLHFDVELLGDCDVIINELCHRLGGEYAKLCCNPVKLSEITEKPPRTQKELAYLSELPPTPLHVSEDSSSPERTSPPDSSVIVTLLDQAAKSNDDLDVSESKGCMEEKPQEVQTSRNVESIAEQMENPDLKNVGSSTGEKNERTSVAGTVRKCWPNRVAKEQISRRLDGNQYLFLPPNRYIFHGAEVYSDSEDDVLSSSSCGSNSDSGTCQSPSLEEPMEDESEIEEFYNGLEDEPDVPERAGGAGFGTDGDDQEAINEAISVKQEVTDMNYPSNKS
assayOverview: SIRT1 mass spectrometry (MS) based deacetylation assay
Assay type: biochemical
runConditions: SIRT1 activation, mass spectrometry assay; read-out: ED50 MS ASSAY
readoutName: EC50

Worked cases, EC50 given:
Lookup: If you can, please state the reported EC50 value of COc1ccc(C(=O)Nc2ccccc2-n2cccc2)cc1OC .
Found: 51 to 100 µM

Lookup: Find the recorded EC50 belonging to COc1ccc(C(=O)Nc2ccccc2-c2cn3ccccc3n2)c(OC)c1 and report it.
Found: 5 to 50 µM

Lookup: EC50 lookup needed for Cc1csc2nc(-c3ccccc3NC(=O)c3cnc4ccccc4n3)cn12 , thanks.
Found: < 5 µM

Lookup: Item under review: O=C(Nc1ccccc1-c1cn2c(COCC(O)CO)csc2n1)c1cnc2ccccc2n1 (centres unmarked) . Reported EC50?
Found: 5 to 50 µM

Next up:
Lookup: Quick one: EC50 for COc1cc(C(=O)Nc2cccc(-c3nc4ccncc4s3)c2)cc(OC)c1OC ?
Found: 5 to 50 µM

----------
testedTarget: SIRT1 (Homo sapiens)
assayOverview: SIRT1 mass spectrometry (MS) based deacetylation assay
Format: biochemical
runConditions: Sirt1 activators; mass spectrometry assay; read-out: ED50 MS ASSAY
pEC50: −log10 of the molar value.
readoutName: pEC50

Solved entries:
Lookup: Which pEC50 value is on record for O=C(Nc1ccccc1-c1cn2c(CN3CCNCC3)csc2n1)c1cc2ccccc2s1 ?
Found: 4.30 to 5.30

Lookup: Suppose we examine the compound O=C(Nc1ccccc1-c1cn2c(n1)CCCC2)c1cnc2ccccc2n1 ; what pEC50 value has been reported?
Found: > 5.30

Lookup: GET /values?readout=pEC50&item= O=C(Nc1ccccc1-c1cn2c(CN3CCNCC3)csc2n1)c1c[nH]nc1-c1ccccc1
Found: > 5.30

Lookup: Looking for the measured pEC50 of O=C1CN(Cc2csc3nc(-c4ccccc4NC(=O)c4cnc5ccccc5n4)cn23)CCN1 , can you help?
Found: > 5.30

Lookup: Look at this compound and give its reported pEC50. COc1ccc(OC(=O)Nc2ccccc2-c2nc3ccncc3s2)cc1
Found: > 5.30

Lookup: Suppose we examine the compound COc1cc(C(=O)Nc2ccccc2-c2cn3c(CN4CCCC4)csc3n2)cc(OC)c1OC ; what pEC50 value has been reported?
Found: > 5.30

Further cases:
Lookup: What measured pEC50 goes with COc1cc(C(=O)Nc2ccccc2-c2nc3cccnc3[nH]2)ccc1CN1CCCC1 ?
Found: 4.30 to 5.30

Lookup: # query: pEC50 of entry FC(F)(F)c1cccc(Cl)c1NC(=S)Nc1cc(-c2nc3ncccc3o2)ccn1
Found: 4.30 to 5.30

Lookup: For the compound CN1CCN(C(=O)Cc2csc3nc(-c4ccccc4NC(=O)c4cnc5ccccc5n4)cn23)CC1 , what pEC50 is on record?
Found: > 5.30

Lookup: Query (compound): COc1ccc(C(=O)Nc2ccccc2-c2cn3c(CN4CCNCC4)csc3n2)cc1F ; field requested: pEC50
Found: 4.30 to 5.30

----------
testedTarget: SIRT1 (Homo sapiens)
assayOverview: SIRT1 mass spectrometry (MS) based deacetylation assay
Format: biochemical
runConditions: SIRT1 activation, mass spectrometry assay; read-out: ED50 MS ASSAY
Collected EC50 values appear next to each entry.

Lookup: Quick check: EC50 of COc1ccc(C(=O)Nc2cccc(-c3nc4cccnc4[nH]3)c2)c(OC)c1OC ?
Found: < 5 µM

Lookup: Look at this compound and give its reported EC50. COc1ccc(C(=O)Nc2cccc(-c3nc4cnccc4o3)c2)c(OC)c1
Found: 5 to 50 µM

Continuing:
Lookup: Give the measured EC50 of O=C(Nc1cccc(-c2nc3ccncc3s2)c1)c1ccc(Oc2ccccc2)nc1 .
Found: 5 to 50 µM

Lookup: Report EC50 for O=C(Nc1ccccc1-c1cn2c(CN3CCNCC3)csc2n1)c1ccccc1 please.
Found: 51 to 100 µM

Lookup: Which EC50 value is on record for COc1ccc(C(=O)Nc2cncc(-c3nc4ncccc4o3)c2)cc1OC ?
Found: 5 to 50 µM

----------
// reported pEC50 per item
testedTarget: SIRT1 (Homo sapiens, UniProt Q96EB6)
assayOverview: SIRT1 mass spectrometry (MS) based deacetylation assay
Format: biochemical
runConditions: SIRT1 activation, mass spectrometry assay; read-out: ED50 MS ASSAY
pEC50: −log10 of the molar value.

Recorded results for 2 compounds are shown here.
Lookup: Using the record for COc1cc(OC)cc(C(=O)Nc2cccc(-c3nc4cccnc4s3)c2)c1 , report its pEC50.
Found: > 5.30

Lookup: GET /values?readout=pEC50&item= COc1ccc(C(=O)Nc2cc(C(=O)NCCN(C)C)cc(-c3nc4ncccc4o3)c2)c(OC)c1
Found: 4.30 to 5.30

For the next question, use this compound.
Lookup: Can you look up the measured pEC50 of O=C(Nc1ccc(-c2nc3ncccc3o2)cc1)c1cccc(OC(F)(F)F)c1 for me?
Found: < 3.82

----------
testedTarget: SIRT1 (Homo sapiens)
assayOverview: SIRT1 mass spectrometry (MS) based deacetylation assay
Assay type: biochemical
runConditions: SIRT1 activation, mass spectrometry assay; read-out: ED50 MS ASSAY
EC50: recorded values

Answered examples (3):
Lookup: Could you share which EC50 value was measured for S=C(Nc1ccc2c(c1)OCO2)Nc1cccc(-c2nc3ncccc3o2)n1 ?
Found: > 150 µM

Lookup: What value of EC50 has been reported for the following compound? COc1ccc(C(=O)Nc2ccccc2-c2nc3ncccc3o2)cc1OC
Found: < 5 µM

Lookup: Looking for the measured EC50 of CN(C)c1ccc(C(=O)Nc2ccccc2-c2nc3cnccc3s2)cc1 , can you help?
Found: < 5 µM

Now turn to the next compound.
Lookup: Dear colleague, I am looking for the recorded EC50 of the following compound: COc1ccc(C(=O)Nc2ccc(-c3nc4ccccc4[nH]3)cc2)cc1OC
Found: < 5 µM
